- study_system: chloride channel (human erythrocyte chloride conductance)
- assay_procedure: In vitro human erythrocyte chloride conductance
- Format: cell-based
- condition_summary: suspensions of human erythrocytes; calculated from dose-response of membrane Cl-conductance (GCl); read-out: KD-value, chloride conductance block
pKd: −log10 of the molar value.

[
  {
    "smiles_string": "O=C(Cc1ccc(Cl)cc1)Nc1ccc(-c2ccc(Cl)cc2)cc1-c1nnn[nH]1",
    "pKd": 7.05
  }
]
